The origin of these recorded values is paper PMC4258842.

Molecular target: T1, FOXM1 full length (FOXM1c, GST fusion) (Homo sapiens, UniProt Q08050 1-763)
T1 sequence: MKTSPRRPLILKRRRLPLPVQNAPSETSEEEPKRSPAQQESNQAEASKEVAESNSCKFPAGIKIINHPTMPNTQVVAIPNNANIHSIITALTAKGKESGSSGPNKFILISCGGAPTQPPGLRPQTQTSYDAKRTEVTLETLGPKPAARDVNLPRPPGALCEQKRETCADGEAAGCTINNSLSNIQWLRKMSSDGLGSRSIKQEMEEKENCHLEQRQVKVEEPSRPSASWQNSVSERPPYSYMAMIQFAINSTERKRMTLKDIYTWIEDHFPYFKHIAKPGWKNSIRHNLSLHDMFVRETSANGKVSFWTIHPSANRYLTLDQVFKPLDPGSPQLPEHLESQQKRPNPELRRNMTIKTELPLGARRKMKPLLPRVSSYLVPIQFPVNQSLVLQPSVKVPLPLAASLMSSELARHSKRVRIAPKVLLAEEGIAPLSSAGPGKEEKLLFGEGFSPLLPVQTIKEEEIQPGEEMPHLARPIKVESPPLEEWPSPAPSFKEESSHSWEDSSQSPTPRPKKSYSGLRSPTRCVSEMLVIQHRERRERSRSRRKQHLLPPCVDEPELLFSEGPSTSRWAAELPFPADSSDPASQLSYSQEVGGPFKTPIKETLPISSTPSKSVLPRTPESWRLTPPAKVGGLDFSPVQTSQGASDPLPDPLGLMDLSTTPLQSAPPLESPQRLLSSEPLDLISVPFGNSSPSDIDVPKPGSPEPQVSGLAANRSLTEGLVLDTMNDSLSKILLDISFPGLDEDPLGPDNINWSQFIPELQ
Test: fluorescence polarization
pKd: −log10 of the molar value.
reported_metric: pKd

[[record]]
binder = "FOXM1 consensus DNA probe, 16 bp (dsDNA) DNA 1: AAACAAACAAACAATC DNA 2: GATTGTTTGTTTGTTT"
test_result = 6.52

